System: HT29 sg-Ctrl (RNF43 wildtype)
Experiment: cell viability activity relative to DMSO (negative = inhibition); higher = more viable cells (less growth inhibition)
Conditions: 5 µM; 96 h
Measured cell viability activity of individual entries
# output: bare number, implied unit %

>>> reported("O=C(/C=C/c1cccc(S(=O)(=O)Nc2ccccc2)c1)NO")
-73.9
>>> reported("O=C(NO)c1cnc(N2CCN(S(=O)(=O)c3ccc4ccccc4c3)CC2)nc1")
-48.5
>>> reported("COc1cccc2c1C(=O)c1c(O)c3c(c(O)c1C2=O)C[C@@](O)(C(=O)CO)C[C@@H]3O[C@H]1C[C@H](N)[C@@H](O)[C@H](C)O1")
-76.5
>>> reported("CC(C)(O)C(=O)N1CCN(c2ccc(C(F)(F)F)c(C3=C(c4c[nH]c5ccccc45)C(=O)NC3=O)c2)CC1")
-32.7
>>> reported("O=C(Nc1cc(C(F)(F)F)cc(C(F)(F)F)c1)c1cc(Cl)ccc1O")
-90.9
>>> reported("NS(=O)(=O)C#Cc1ccccc1")
-72.2
>>> reported("NNc1nncc2ccccc12")
-40.8
>>> reported("COC(=O)C1=C(C)NC(C)=C(C(=O)OCCCN2CCC(c3ccccc3)(c3ccccc3)CC2)[C@@H]1c1cccc([N+](=O)[O-])c1")
-91.4

Q) State, in one line, measured cell viability activity of C[C@@H](NC(=O)c1ncnc(N)c1Cl)c1ncc(C(=O)Nc2cc(C(F)(F)F)c(Cl)cn2)s1
A) -29.1

Q) State, in one line, measured cell viability activity of Cc1nc(C#Cc2ccnc(Cl)c2)c(C)n1-c1ccc(OC(F)(F)F)cc1
A) -18.5

Q) State, in one line, measured cell viability activity of CC[C@@]1(O)C(=O)OCc2c1cc1n(c2=O)Cc2c-1nc1cc(F)c(C)c3c1c2[C@@H](N)CC3
A) -90.4

Q) State, in one line, measured cell viability activity of COc1c(C)c2c(c(O)c1C/C=C(\C)CCC(=O)O)C(=O)OC2
A) -27.7

Q) State, in one line, measured cell viability activity of CCS(=O)(=O)Nc1ccc2[nH]c(O)c(C(=Nc3ccc(CN4CCCCC4)cc3)c3ccccc3)c2c1
A) -75.4
